I'd be grateful if you could share measured GI50 for these entries.
Tested on: NCI-H226
Test: NCI tumour cell line growth inhibition, 48 h
Calls of active or inactive are those of the source. Cut-off read from the data, not from the text of the source: active = GI50 up to about 1.1 µM and inactive = higher.

For every listed record, write down its GI50.
1. COc1cc(CNC(=O)CCCCCCCCCCSC#N)ccc1O
2. O=[N+]([O-])c1ccc(-c2ccc(-c3csc(Nc4ccccc4)n3)o2)cc1
3. COc1ccc(N2C(=O)C3c4[nH]c5ccccc5c4C4CCC(C(C)C)CC4C3C2=O)cc1 (stereo not given)

18.1 µM (inactive)
40.6 µM (inactive)
> 100 µM (inactive)

* * *

Can you tell me GI50 for the items I'm about to list?
System: SNB-75
Experiment: NCI tumour cell line growth inhibition, 48 h
Active and inactive are the calls of the source. Cut-off read from the data, not from the text of the source: active = GI50 up to about 1.1 µM and inactive = higher.

Worked cases, answers included:
CC12CCc3ccccc3C1=NNC(=O)C2 (stereo unspecified) | > 100 µM (inactive)
O=C(c1ccc(Cl)cc1)C1OC12C(=O)Nc1c(Cl)cc(Cl)cc12 (stereo unspecified) | 25.9 µM (inactive)
CCCCCCCSCC1OC(n2cnc3c(N)ncnc32)C(O)C1O (stereo unspecified) | 24 µM (inactive)

Items follow; give GI50 for each.
1. O=C(N/N=C/c1ccc([N+](=O)[O-])o1)c1ccc(C(=O)N/N=C/c2ccc([N+](=O)[O-])o2)cc1
2. CC1=C(c2cc(C(=O)Nc3cccc(C(F)(F)F)c3)nc(NC#N)n2)Sc2ccccc2N1
3. CC(=O)NC1C(OCc2ccccc2)OC(CO)C(O)C1OCC(=O)N[C@@H](C)C(=O)N[C@H](CCC(=O)NCCNCCNc1c2ccccc2nc2cccc([N+](=O)[O-])c12)C(N)=O (stereo partly specified)

> 100 µM (inactive)
> 100 µM (inactive)
33.2 µM (inactive)

Hi there! I need GI50 for each item below, if you can.
1. Cn1c2ccccc2c(=NNc2cccc(C(=O)O)c2)c2ccccc21
2. CCOP(=O)(OCC)/C(C#N)=C/c1ccco1
3. N=C(N)N/N=C(/c1nc2ccc([N+](=O)[O-])cc2[nH]c1=O)C(O)c1ccc([N+](=O)[O-])cc1 (stereo unspecified)
4. Nc1n[n+](CC(=O)c2ccccc2)c2sc(-c3ccccc3)nn12
5. COc1ccc2c(c1)CCCC(Br)C2=O (stereo unspecified)
6. CN(C)CC1CCC(=C2CCCC2)C1=O (stereo unspecified)

1. 23.9 µM (inactive)
2. > 100 µM (inactive)
3. 86.1 µM (inactive)
4. > 100 µM (inactive)
5. 12.6 µM (inactive)
6. 16.2 µM (inactive)

* * *

System: A549
Test: NCI tumour cell line growth inhibition, 48 h
Active and inactive are the calls of the source. Cut-off read from the data, not from the text of the source: active = GI50 up to about 1.1 µM and inactive = higher.
Answer with one of the outcomes Yes (active), No (inactive)

COc1ccc(N2C(=O)C3c4[nH]c5ccccc5c4C4CCC(C(C)C)CC4C3C2=O)cc1 (centres undefined) | No
Cn1cc2c(n1)c(N/N=C/c1ccccc1)nn1nnnc21 | No
C[C@@H]1CCC2[C@@H](C)[C@H](O[C@H]3O[C@@H]4O[C@@]5(C)CCC6[C@H](C)CCC([C@H]3C)[C@]64OO5)O[C@@H]3O[C@@]4(C)CCC1[C@@]23OO4 (some centres undefined) | Yes
CC(=O)OC12C3C4C1C1C2C3C41OC(C)=O (centres undefined) | No
O=S(=O)(c1ccccc1)N1CCN(S(=O)(=O)c2ccccc2)c2ccccc21 | No

What was the test verdict on CCC1=CCC23C(=O)C=CC(=O)C2(C1)C(=O)c1cccc(OC)c1C3=O (centres undefined) ?
No

State the result this test recorded for `O=c1[nH]nc(Cc2ccc(Cl)cc2)n1/N=C/c1c[nH]c2ccccc12` .
No

Please state the recorded outcome for this compound: `COc1cc2c(cc1O)-c1c(cnn1-c1ccc([N+](=O)[O-])cc1)CCC2`
No

Tell me the assay call for N=C(N)N/N=C(/c1nc2ccc([N+](=O)[O-])cc2[nH]c1=O)C(O)c1ccc([N+](=O)[O-])cc1 (centres undefined) please.
No

Each compound tested received a call. Report the one for O=C1c2c(O)ccc(O)c2C(=O)c2c(NCCNC(=O)C(O)C(O)C(O)C(O)CO)ccc(NCCNC(=O)C(O)C(O)C(O)C(O)CO)c21 (centres undefined) .
Yes

Please indicate how the test categorized CP(=O)(CCSc1ccccc1)c1ccccc1 (centres undefined) .
No

Assay result, entry CCN(CC)CCCC(C)Nc1c2ccc(Cl)cc2nc2ccc(OC)cc12 (centres undefined) — outcome?
No

Tell me the assay call for Cc1ccc(C2c3c(n(C)c(=O)n(C)c3=O)OC(N(C)C)(N(C)C)C2(F)F)cc1 (centres undefined) please.
No

Fill in: this test's call for `O=[N+]([O-])c1ccc(-c2ccc(-c3csc(Nc4ccccc4)n3)o2)cc1` is ___
No

Which outcome was entered for the compound COC(=O)CCC(NC(=S)N/N=C/c1ccco1)C(=O)OC (centres undefined) in this test?
No

Record request — test call for CN(C)CC1CCC(=C2CCCC2)C1=O (centres undefined)
No

Entry `COc1ccc(NCC(=O)Nn2c(C)nc3ccc(S(=O)(=O)Nc4ccc(OC)cc4)cc3c2=O)cc1` : call = ?
No

* * *

Test system: MDA-MB-231
Assay: NCI tumour cell line growth inhibition, 48 h
Calls of active or inactive are those of the source. Rule as the data show it: active = GI50 up to about 1.1 µM and inactive = higher.
parameter: GI50

Below are some compounds; for each one, tell me its GI50.
1. O=C(O)c1c2c(cc3c1CC(Cc1ccccc1)C3=O)CCC2 (configuration not stated)
2. Cc1ccc(C(=O)/C=C2/Nc3ccccc3NC2=O)c(C)c1
3. CC(=O)O[C@H](C[C@@H](C)[C@H]1C(=O)[C@H](O)[C@@]2(C)C3CC[C@H]4C(C)(C)[C@@H](OC5OCC(O)C(O)C5O)CC[C@@]45C[C@@]35CC[C@]12C)[C@@H]1OC1(C)C (some centres not stated)
4. CC(C)(C)OC(=O)CN1CCN(CC(=O)N2CCN(C(=O)OCc3ccccc3)CC2)CCN(CC(=O)OC(C)(C)C)CCN(CC(=O)N2CCN(C(=O)OCc3ccccc3)CC2)CC1
5. CC(C)CNC(=O)CCc1cccc2c1oc1c(CCN)cccc12

1. 30.5 µM (inactive)
2. 14.3 µM (inactive)
3. 16.1 µM (inactive)
4. 1.64 µM (inactive)
5. 15 µM (inactive)

List the reported GI50 of each compound below.
1. CCC12CCCN(Cc3ccccc3)C1c1c([nH]c3ccccc13)C(C(=O)OC)C2 (configuration not stated)
2. CC1CN(c2cc3c(cc2F)c(=O)c(C(=O)O)cn3-c2ccc(F)cn2)CC(C)N1 (configuration not stated)

["> 10 µM (inactive)", "> 100 µM (inactive)"]

* * *

So I've got a bunch of compounds here, and I need their GI50 values.
Test system: HL-60
Test: NCI tumour cell line growth inhibition, 48 h
Calls of active or inactive are those of the source. Cut-off read from the data, not from the text of the source: active = GI50 up to about 1.1 µM and inactive = higher.

CCOC(=O)c1c(-c2ccccc2)oc(-c2ccccc2)c1C(=O)OCC | 33.6 µM (inactive)

Give GI50 for each of the items listed below.
1. CCOP(=O)(OCC)/C(C#N)=C/c1ccco1
2. C[C@]12CCC(=O)CC1CCCC2=O (stereo partly drawn)
3. CS/C(=C(\S)c1ccccc1)c1ccccc1
4. Cc1cc(S(=O)(=O)Nc2nc(N)nc(N(C)C)n2)c(SCC(=O)O)cc1Cl
5. O=C(O)Cc1cccc2c1OC(c1ccccc1)C(Cl)(C(=O)c1ccccc1)C2=O (stereo not drawn)
6. O=C(CC(Cl)=C(Cl)Cl)c1ccccc1
7. NC(=S)N/N=C\c1ccc(OCc2cccc(COc3ccc(/C=N/NC(N)=S)cc3)n2)cc1
8. CC[C@@H](C)[C@H](NC(=O)[C@H](Cc1ccccc1)NCC(F)(F)F)C(=O)OC(C)(C)C

> 100 µM (inactive)
> 100 µM (inactive)
> 100 µM (inactive)
> 10 µM (inactive)
11.9 µM (inactive)
55.8 µM (inactive)
10.5 µM (inactive)
> 100 µM (inactive)

* * *

Test system: SK-OV-3
Test: NCI tumour cell line growth inhibition, 48 h
The source made the active and inactive calls. Cut-off read from the data, not from the text of the source: active = GI50 up to about 1.1 µM and inactive = higher.
parameter: GI50

Examples from the recorded data:
O=C(N/N=C\c1ccc2ccccc2c1)Nc1ccc([N+](=O)[O-])cc1 | 18.9 µM (inactive)
C/C=C/COc1cc(NC(=S)c2ccoc2C)ccc1OC | 61.1 µM (inactive)
CN1CCN(CCCN2c3ccccc3Sc3ccc(C(F)(F)F)cc32)CC1 | 13.5 µM (inactive)
O=C(CNC(=O)c1ccccc1)Oc1c(Cl)c(Cl)c(Cl)c(Cl)c1Cl | 72.4 µM (inactive)

Need GI50 for each of these compounds.
1. COc1ccccc1/N=N/C(=N/NC(=O)c1ccc(C)cc1)c1ccc(N(CCC#N)CCC#N)cc1OC
2. COC(=O)c1c(C(=O)OC)c2ccccn2c1-c1cc(OC)c(Br)c(=O)o1
3. CC1=C(c2cc(C(=O)Nc3cccc(C(F)(F)F)c3)nc(NC#N)n2)Sc2ccccc2N1
4. Cc1ccc(C(=O)/C=C2/Nc3ccccc3NC2=O)c(C)c1
5. CCc1cccc(CC)c1NC(=O)C(C#N)C1=C(Cl)C(=O)c2ccccc2C1=O (stereo not given)

1: 37.1 µM (inactive); 2: > 100 µM (inactive); 3: > 100 µM (inactive); 4: 7.05 µM (inactive); 5: 19.7 µM (inactive)

What value of GI50 has been reported for the following compound? C/C=C1/CC(C)C(C)(O)C(=O)OCC2C(O)CN3CCC(OC1=O)C23 (stereo not given)
> 100 µM (inactive)
